Please provide measured pIC50 for the entries that follow.
target: Acetylcholinesterase human (AChE) (Homo sapiens, UniProt P22303); experiment: AChE inhibition kinetics, Ellman's method combined with capillary electrophoresis; conditions: from activity (%) versus inhibitor concentration plots
Sequence (P22303 32-614): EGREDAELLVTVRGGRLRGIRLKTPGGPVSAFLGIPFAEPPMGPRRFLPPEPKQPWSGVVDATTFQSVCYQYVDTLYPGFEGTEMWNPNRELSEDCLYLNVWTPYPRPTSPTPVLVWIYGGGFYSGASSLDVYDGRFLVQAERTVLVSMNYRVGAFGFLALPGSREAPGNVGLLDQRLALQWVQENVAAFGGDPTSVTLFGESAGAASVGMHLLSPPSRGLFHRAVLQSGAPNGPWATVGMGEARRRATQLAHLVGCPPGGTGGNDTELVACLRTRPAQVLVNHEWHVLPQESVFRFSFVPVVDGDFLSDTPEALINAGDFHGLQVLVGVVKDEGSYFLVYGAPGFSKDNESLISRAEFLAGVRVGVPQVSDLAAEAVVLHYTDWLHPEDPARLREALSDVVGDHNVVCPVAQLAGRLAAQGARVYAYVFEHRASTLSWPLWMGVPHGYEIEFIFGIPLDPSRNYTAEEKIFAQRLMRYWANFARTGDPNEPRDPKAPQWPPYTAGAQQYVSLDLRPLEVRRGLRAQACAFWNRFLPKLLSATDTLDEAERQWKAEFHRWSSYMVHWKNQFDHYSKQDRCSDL
Entry type: numeric. Quantity: pIC50, the -log10 of concentration in molar units.

// fetch Acetylcholinesterase human (AChE) (Homo sapiens, UniProt P22303) pIC50 for CCC12C(=O)C(CC)(C(c3ccccc3)=C1c1ccccc1)C1C(=O)N(CC(O)CN(C)C)C(=O)C12 (stereo not shown)
4.41

// fetch Acetylcholinesterase human (AChE) (Homo sapiens, UniProt P22303) pIC50 for CCC12C(=O)C(CC)(C(c3ccccc3)=C1c1ccccc1)C1C(=O)N(CC(O)CNC(C)C)C(=O)C12 (stereo not shown)
4.43

// fetch Acetylcholinesterase human (AChE) (Homo sapiens, UniProt P22303) pIC50 for CC(C)NCC(O)CN1C(=O)C2C(C1=O)C1(C)C(=O)C2(C)C(c2ccccc2)=C1c1ccccc1 (stereo not shown)
4.48

// fetch Acetylcholinesterase human (AChE) (Homo sapiens, UniProt P22303) pIC50 for CN(C)CC(O)CN1C(=O)C2C(C1=O)C1(C)C(=O)C2(C)C(c2ccccc2)=C1c1ccccc1 (stereo not shown)
4.46
